# ASSAY_PROCEDURE: qHTS assay to identify small molecule antagonists of the androgen receptor (AR) signaling pathway using the MDA cell line - cell viability counter screen (AID 743041; further: nearly all actives have a fitted effect of over 45% in size)
# PARTICULARS: MDA-kb2 viability, CellTiter-Fluor, 16 h, cells co-treated with R1881 androgen agonist; series mostly up to 70.3 µM
Records with an inconclusive call do not appear. Calls of active or inactive are those of the source. The call rests on the fitted dose curve; in most records, active means well fitted cell-killing curve with a large enough effect in the repeat runs; inconclusive means weak or mixed curves, or effect the other way; inactive means flat fitted curve, though single readings scatter.
Possible outcomes: active, inactive

1. O=C(O)CNC(=O)c1ccccc1I ... inactive
2. CCCCCCCC(=O)Oc1c(Br)cc(C#N)cc1Br ... inactive
3. Cc1cccc2sc(N)nc12 ... inactive
4. COc1ccc(CCN(C)CCCN2CCc3cc(OC)c(OC)cc3CC2=O)cc1OC ... inactive
5. CC1=C2[C@@H]([C@H](C)CC[C@H]2/C=C(\C)C(=O)O)[C@H](O)C1 ... inactive
6. O=C(NC(Cc1cc(=O)[nH]c2ccccc12)C(=O)O)c1ccc(Cl)cc1 (configuration not stated) ... inactive
7. NC(=O)c1ccccc1[N+](=O)[O-] ... inactive
8. CCc1ccc(C)cc1 ... inactive
9. CC(C)(O)c1coc(S(=O)(=O)NC(=O)Nc2c3c(cc4c2CCC4)CCC3)c1 ... inactive
10. CNc1c2c(nn1C)CCCC2 ... inactive
11. CCN(Cc1cccc(S(=O)(=O)O)c1)c1ccc(C(=C2C=CC(=[N+](CC)Cc3cccc(S(=O)(=O)O)c3)C=C2)c2ccccc2S(=O)(=O)[O-])cc1 ... active
12. CC(=O)C(C)=O ... inactive
13. O=C(O)c1cccc(C[C@@H]2COc3ccc(OCc4nc5cc(F)ccc5s4)cc3[C@@H]2O)c1 ... inactive
14. CCCCCc1ccco1 ... inactive
15. CCO[Si](C)(CCCOCC1CO1)OCC (configuration not stated) ... inactive
16. COC1CCC=CO1 (configuration not stated) ... inactive
17. COC(=O)C1=C(C)NC(C)=C(C(=O)OC(C)(C)CN(C)CCC(c2ccccc2)c2ccccc2)C1c1cccc([N+](=O)[O-])c1 (configuration not stated) ... inactive
18. O=C1NC(=O)c2cccc3cccc1c23 ... inactive
19. O=P(O)(O)Oc1ccccc1 ... inactive
20. O=C(O)CN1C(=O)c2cccc3cccc(c23)C1=O ... inactive
21. Cc1ccc(NC(=O)N(C)C)cc1NC(=O)N(C)C ... inactive
22. CCN(CC)CCNC(=O)c1cc(Cl)c(N)cc1OC ... inactive
23. C=CCOC(=O)COCCC(C)C ... inactive
24. COc1ccc(-n2nc(C(F)F)cc2-c2ccc(S(C)=O)cc2)cc1 (configuration not stated) ... inactive
25. CC1CCC(C(C)CS)CC1S (configuration not stated) ... inactive
26. COc1cc(NC(C)CCCN)c2ncccc2c1 (configuration not stated) ... inactive
27. CC(=O)OCC(C)C ... inactive
28. CC[C@@H](CO)NCCN[C@@H](CC)CO ... inactive
29. Cc1cc([N+](=O)[O-])ccc1N ... inactive
30. COc1cc(S(=O)(=O)Nc2ccccc2)c(OC)cc1N ... inactive
31. CCCCCCCCCCCSCC(=O)O ... inactive
32. CC[C@H]1OC(=O)[C@H](C)[C@@H](O[C@H]2C[C@@](C)(OC)[C@@H](O)[C@H](C)O2)[C@H](C)[C@@H](O[C@@H]2O[C@H](C)C[C@H](N(C)C)[C@H]2O)[C@](C)(O)C[C@@H](C)C(=O)[C@H](C)[C@@H](O)[C@]1(C)O ... inactive
33. CC(=O)N[C@@H](Cc1ccc(O)cc1)C(=O)O ... inactive
34. COc1ccc(N)c([N+](=O)[O-])c1 ... inactive
35. CCOC(=O)c1c(N)sc2c1CCN(Cc1ccccc1)C2 ... inactive
36. FC(F)(F)C(F)(F)C(F)(F)C(F)(F)CCI ... inactive
37. O=C(O)c1ccc(O)cc1O ... inactive
38. CC(=O)OC(C)C[N+](C)(C)C (configuration not stated) ... inactive
39. CC1C(C)(C)C2=C(C(=O)CCC2)C1(C)C (configuration not stated) ... inactive
40. CC1CCCO1 (configuration not stated) ... inactive
41. CCCCCCCCCCCCCCN(C)C ... inactive
42. CNC1CCCN(c2c(F)cc3c(=O)c(C(=O)O)cn(C4CC4)c3c2OC)C1 (configuration not stated) ... inactive
43. CC(C)c1ccc(C#N)cc1 ... inactive
44. CC(C)(C)NCC(O)COc1cccc2c1C[C@H](O)[C@H](O)C2 (some centres not stated) ... inactive
45. CCCCCCCCCCCCCCCC(=O)OCC ... inactive
46. Cc1c(C2(c3cc(Br)c(O)c(Br)c3C)OS(=O)(=O)c3ccccc32)cc(Br)c(O)c1Br ... active
47. CC(C)OC(=O)c1ccccc1C(=O)OC(C)C ... inactive
48. [Cl][Nd]([Cl])[Cl] ... inactive
49. CC/C=C\C/C=C\C/C=C\CCCCCCCC(=O)OCC ... inactive
50. CCCC(=O)OC(=O)CCC ... inactive
51. Cc1c[nH]c2ccccc12 ... inactive
52. CCCCCCC(O)CCOC(C)=O (configuration not stated) ... inactive
